# Test system: IGR37-GP cells (Dabrafenib-resistant)
# Protocol: Kinase inhibitor library screening, PrestoBlue cell viability, 1 or 10 μM, 72 h
# Measurement setup: IGR37 GP, 10μΜ, 72 h
Decision: cell viability, IGR37 GP, 10μΜ beneath 40% gives Criterion met; cell viability, IGR37 GP, 10μΜ meeting or exceeding 40% gives Criterion not met.

Compound	Discrete label
CS(=O)(=O)CCNCc1ccc(-c2ccc3ncnc(Nc4ccc(OCc5cccc(F)c5)c(Cl)c4)c3c2)o1.Cc1ccc(S(=O)(=O)O)cc1.Cc1ccc(S(=O)(=O)O)cc1 [Lapatinib Ditosylate (Tykerb)]	Criterion met
CCOc1cc2ncc(C#N)c(Nc3ccc(F)c(Cl)c3)c2cc1NC(=O)/C=C/CN(C)C [Pelitinib (EKB-569)]	Criterion not met
COc1cc2ncnc(Nc3ccc(O)c(Br)c3)c2cc1OC	Criterion not met
Cc1cnc(Nc2ccc(N3CCN(C)CC3)cc2)nc1Nc1cccc(S(=O)(=O)NC(C)(C)C)c1	Criterion met
C=CC(=O)Nc1cc2c(Nc3ccc(F)c(Cl)c3)ncnc2cc1OCCCN1CCOCC1	Criterion met
CCc1cc(Nc2nccc(-c3c(-c4ccc(OC)c(C(=O)Nc5c(F)cccc5F)c4)nc4ccccn34)n2)c(OC)cc1N1CCC(N2CCN(S(C)(=O)=O)CC2)CC1 [GSK1904529A]	Criterion not met
CN1CCN(c2cccc(Nc3nc4c(-c5ccc(S(C)(=O)=O)cc5)cccn4n3)c2)CC1	Criterion not met
CCN1CCN(Cc2ccc(-c3cc4c(N[C@H](C)c5ccccc5)ncnc4[nH]3)cc2)CC1	Criterion not met
COc1cccc(-c2cc(=O)c3ccccc3o2)c1N	Criterion not met
CCC[C@H](NC(=O)/C(C#N)=C/c1cccc(Br)n1)c1ccccc1 [WP1130, reference compound]	Criterion met
COc1cc2ncnc(Nc3cccc(Cl)c3)c2cc1OC	Criterion not met
O=C1NC(=O)C(c2ccccc2[N+](=O)[O-])=C1Nc1ccc(O)c(Cl)c1	Criterion not met
CC(=O)Nc1cccc(-n2c(=O)n(C3CC3)c(=O)c3c(Nc4ccc(I)cc4F)n(C)c(=O)c(C)c32)c1	Criterion not met
CCOc1cc2ncc(C#N)c(Nc3ccc(OCc4ccccn4)c(Cl)c3)c2cc1NC(=O)/C=C/CN(C)C	Criterion met
CC(C)(C)c1cc(C=C(C#N)C#N)cc(Br)c1O	Criterion not met
